Values from PubChem BioAssay (Tox21)

- experiment notes: Nuclear factor erythroid 2-related factor 2/antioxidant responsive element (Nrf2/ARE) small molecule agonists: qHTS cell viability counter screen in human keratinocytes (AID 1919968); also: nearly all actives have a fitted effect of over 55% in size
- test context: KeratinoSens HaCaT ARE cells viability, CellTiter-Fluor, 24 h; series mostly up to 92.4 µM
Inconclusive results are not listed. Activity calls are given as the source filed them. Calls follow the shape of the dose curve; as a rule, active = well fitted cell-killing curve with a large enough effect in the repeat runs; inconclusive = weak or mixed curves, or effect the other way; inactive = flat fitted curve, though single readings scatter.
Select the matching outcome among active, inactive

Use the examples below as a reference point.
| compound | class name |
| --- | --- |
| C=C(C)C(=O)OCC(CC)CCCC (stereo not given) | inactive |
| CN1C(=O)CCS(=O)(=O)C1c1ccc(Cl)cc1 (stereo not given) | inactive |
| Cc1ccc(N)cc1 | inactive |
| C[N+](C)(C)Cc1ccccc1 | inactive |
| Cc1cccc(N=Nc2ccc(N(C)C)cc2)c1 | inactive |

Query block: Test call, this compound: `C=CCc1ccccc1O`
Result block: inactive

Query block: How was `CN1CSC(=S)N(C)C1` classified in this test?
Result block: active

Query block: Which result was noted for this compound in the test: `CCOP(=S)(OCC)SCn1c(=O)oc2cc(Cl)ccc21`
Result block: inactive

Query block: Field: outcome | Entry: `CN(C)c1ccccc1`
Result block: inactive

Query block: What was the test verdict on `Oc1ccc(-c2ccccc2)cc1` ?
Result block: inactive

Query block: Can you look up the reported call for `ClCc1ccccc1` for me?
Result block: inactive

* * *

- assay system: Muscarinic acetylcholine receptor M1 (Homo sapiens) (UniProt P11229)
- Sequence (P11229 whole entry, looked up): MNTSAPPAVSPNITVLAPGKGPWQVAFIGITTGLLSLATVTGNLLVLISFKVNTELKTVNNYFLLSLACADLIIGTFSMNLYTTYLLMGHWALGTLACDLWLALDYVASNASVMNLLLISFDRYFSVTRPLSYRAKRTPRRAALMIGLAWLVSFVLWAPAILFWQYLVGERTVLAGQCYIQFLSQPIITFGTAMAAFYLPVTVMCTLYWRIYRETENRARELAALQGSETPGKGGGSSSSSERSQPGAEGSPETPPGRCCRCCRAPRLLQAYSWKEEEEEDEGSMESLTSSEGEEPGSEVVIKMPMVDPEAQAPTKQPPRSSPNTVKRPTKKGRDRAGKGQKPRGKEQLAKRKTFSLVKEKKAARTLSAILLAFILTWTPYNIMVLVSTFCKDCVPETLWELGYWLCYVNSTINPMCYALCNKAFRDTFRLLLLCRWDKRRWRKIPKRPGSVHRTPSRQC
- experiment notes: Cholinergic receptor muscarinic 1 (CHRM1) small molecule agonists, cell-based qHTS assay (AID 1963589); also: nearly all actives have a fitted effect of over 35% in size
- test context: CHRM1-CHO cells, agonist mode, calcium flux fluorescence; series mostly up to 76.8 µM
- Description: National Center for Advancing Translational Sciences [NCATS] Division of Preclinical Innovation [DPI] U.S. Environmental Protection Agency [EPA] National Institutes of Environmental Health Sciences [NIEHS] National Toxicology Program [NTP] U.S. Food and Drug Administration [FDA] The CHRM1 is a muscarinic receptor. […] The CHRM1-CHO Calcium Flux Assay is a homogeneous fluorescence-based assay for detecting the intracellular calcium level using FDSS kinetic plate reader system. […]
Active and inactive are the calls of the source. The call rests on the fitted dose curve.
property measured: activation

| compound | activation |
| --- | --- |
| C[C@]12CCC(=O)C=C1CC[C@@H]1[C@@H]2CC[C@]2(C)C(=O)CC[C@@H]12 | inactive |
| CC(C)(c1ccccc1)c1cc(-n2nc3ccccc3n2)c(O)c(C(C)(C)c2ccccc2)c1 | inactive |
| Nc1ccccc1C(=O)O | inactive |
| O=C(O)COc1ccccc1 | inactive |
| CC(C)C1(C)N=C(c2nc3ccccc3cc2C(=O)O)NC1=O (stereo not given) | inactive |

Query block: Lookup: activation / Muscarinic acetylcholine receptor M1 (Homo sapiens) (UniProt P11229) / `Cc1ccc(C(=O)Cl)cc1`
Result block: inactive

Query block: Enter reported activation observed with Muscarinic acetylcholine receptor M1 (Homo sapiens) (UniProt P11229) for `c1ccc(-c2cccc(-c3ccccc3)c2)cc1`
Result block: inactive

Query block: GET /values?readout=activation&system=Muscarinic acetylcholine receptor M1 (Homo sapiens) (UniProt P11229)&item= `CC(C)c1ccc(NC(=O)N(C)C)cc1`
Result block: inactive

Query block: activation of `Nc1ccc(Cl)cc1N` on Muscarinic acetylcholine receptor M1 (Homo sapiens) (UniProt P11229)?
Result block: inactive

Query block: Under Muscarinic acetylcholine receptor M1 (Homo sapiens) (UniProt P11229): activation value of `CCOC(=O)c1ccccc1C(=O)OCC` ?
Result block: inactive
